Tested on: M14 melanoma
Experiment: NCI-60 one-dose screen, 48 h (100 = growth as untreated, 0 = no growth, -100 = all killed)
Conditions: 10 µM unless noted
Compounds without any hit were thinned out: in the full panel of roughly 83,000, 20% have a hit. The source made the active and inactive calls. Rule for the calls: active = growth percent below 10; inactive = the rest.
I'd appreciate it if you could supply growth values for the items below.

Would you please look over these solved cases?
Need growth, item `FC(F)(F)c1ccc(-c2cnc(-c3nn[nH]n3)nc2NC2CCCCCC2)cc1`
53.2% [50 µM] (inactive)

Need growth, item COc1ccc(C2=NN(C(C)=O)C(c3c(C)nn(-c4ccccc4)c3N3CCOCC3)C2)cc1 (centres undefined)
94.8% (inactive)

Need growth, item `CCCCCCCCCCN1CCC(N2CCCCC2)CC1`
-79.4% (active)

Need growth, item `COc1ccc(-c2cc(-c3cccnc3)nc3sc(C(=O)Nc4ccccc4)c(N)c23)cc1OC`
66.3% (inactive)

Hi there! I need growth for each item below, if you can.
1. COC(=O)[C@H](Cc1cnc[nH]1)NC(=O)[C@@H](NC(=O)Nc1cc(C(F)(F)F)cc(C(F)(F)F)c1)C(C)C
2. CCN(CC)CCSc1ncnc2c1cnn2-c1ccc(S(N)(=O)=O)cc1
3. O=C(CNc1ccc2c(c1)C(=O)c1ccccc1C2=O)Nc1ccc2c(c1)C(=O)c1ccccc1C2=O
4. Cn1c(N2N=C(c3ccc(Cl)cc3)CC2c2ccccc2)nc(-c2ccccc2)c(C#N)c1=O (centres undefined)
5. Cc1ccc(OCC(=O)Nc2ccc(Oc3ccccc3)cc2)c([N+](=O)[O-])n1

1: -89% [100 µM] (active); 2: 98.6% (inactive); 3: -79.3% (active); 4: 90% (inactive); 5: 74.7% (inactive)

====

Tested on: COLO 205 colon
Assay: NCI-60 one-dose screen, 48 h
Settings: 10 µM unless noted
Compounds without any hit were thinned out: in the full panel of roughly 83,000, 20% have a hit. Active and inactive are the calls of the source. Rule for the calls: active = growth percent below 10; inactive = the rest.
Entry note: the call must match one of true (active), false (inactive)

Recorded call for `O=C(O)CNC(=O)C1(N2C(=O)c3ccccc3C2=O)CCCC1` ?
false

We next turn to a different molecule, shown below.
Recorded call for `c1ccc(CN=C(NCc2ccccc2)NCc2ccccc2)cc1` ?
false

====

System: K-562 leukemia
Experiment: NCI-60 one-dose screen, 48 h (100 = growth as untreated, 0 = no growth, -100 = all killed)
Settings: 10 µM unless noted
The panel holds about 83,000 compounds, 20% with a hit somewhere; the sample as a whole holds those more often.
I'd appreciate it if you could supply growth values for the items below.
Numbers only, in %.

Need growth, item `Cn1cc(NC(=O)Nc2cc(C(=O)O)n(C)c2)cc1C(=O)O`
83.1

Hi there! I need growth for each item below, if you can.
1. CCCn1c(N)c(C(=O)CNc2ccc(I)cc2)c(=O)[nH]c1=O
2. O=C(O)C1C(c2ccccc2)c2ccccc2C(O)C1CO (stereo not given)
3. O=C(NCCNC(=O)Oc1cccc2ccccc12)Oc1cccc2ccccc12
4. CC(=O)N1N=C(c2ccc(Cl)cc2)CC1c1c(C)nn(-c2ccccc2)c1N(C)Cc1ccccc1 (stereo not given)
5. Cc1[nH]ccc2cc3nc4ccccc4c3cc12
6. NC(=O)c1cc(Br)cc(Br)c1NS(=O)(=O)c1ccccc1
7. OCc1n(Cc2ccc3ccccc3c2)cc[n+]1Cc1ccc2ccccc2c1

1: 43.5; 2: 111; 3: 102; 4: 61.9; 5: 12.1; 6: 122; 7: 22.7

Hi there! I need growth for each item below, if you can.
1. COc1ccc2c3c(ccc2c1)C(=O)/C(=C\O)CC3
2. COc1cc(/C=C2\CN(C)CC3=C2Nc2nc(SC)[nH]c(=O)c2C3c2cc(OC)c(OC)c(OC)c2)cc(OC)c1OC (stereo not given)

[82.7, 8.74]

====

Test system: SF-539 CNS
Assay: NCI-60 one-dose screen, 48 h (100 = growth as untreated, 0 = no growth, -100 = all killed)
Conditions: 10 µM unless noted
This is part of a sample that, as a whole, favours compounds with a hit. Of some 83,000 tested, about 20% had one in any assay.
growth strictly under 90% means met; at 90% or over means not met.

Field: below-cutoff. Rule: recorded growth strictly less than 90%. Subject: `c1ccc(-c2oc(-c3ccccc3)c3ccccc23)cc1`
not met

Field: below-cutoff. Rule: recorded growth strictly less than 90%. Subject: `COc1cc(/C=N/NC(=O)c2ccc(C(F)(F)F)nc2Nc2cc(Cl)ccc2C)cc(OC)c1OC`
not met

Field: below-cutoff. Rule: recorded growth strictly less than 90%. Subject: `CN1CCN(CCCOc2ccc3ncnc(Nc4ccc(OCc5cccc(F)c5)c(Cl)c4)c3c2)CC1`
met

Field: below-cutoff. Rule: recorded growth strictly less than 90%. Subject: `Oc1ccccc1/C=N/N1CCCCCC1`
not met

Field: below-cutoff. Rule: recorded growth strictly less than 90%. Subject: COc1ccc(C2=NN(C(N)=S)C(c3ccc4c(c3)OCO4)C2)cc1 (configuration not stated)
met

We next turn to a different compound, shown below.
Field: below-cutoff. Rule: recorded growth strictly less than 90%. Subject: `O=C1Nc2ccc(Cl)cc2/C1=C/c1cccs1`
met

====

Test system: HCT-116 colon
Assay: NCI-60 one-dose screen, 48 h (100 = growth as untreated, 0 = no growth, -100 = all killed)
Conditions: 10 µM unless noted
The panel holds about 83,000 compounds, 20% with a hit somewhere; the sample as a whole holds those more often.
I'd appreciate it if you could supply growth values for the items below.
Give bare numbers, in %.

Need growth, item `NC(=O)c1cc(Br)cc(Br)c1NS(=O)(=O)c1ccccc1`
100

Need growth, item `CC[C@@H](c1ccc(O)c(O)c1)[C@@H](CC)c1ccc(O)c(O)c1`
9.12

Need growth, item `Cc1n(Cc2ccc3ccccc3c2)c2ccccc2[n+]1Cc1ccc2ccccc2c1`
-91

Hi there! I need growth for each item below, if you can.
1. C[C@H](C(=O)N[C@@H](Cc1ccc(-c2ccccc2)cc1)C(=O)NC1CC(C)(C)N(C)C(C)(C)C1)c1ccc(-c2ccccc2)c(F)c1
2. CCCCCCCCCCCCCCCCCC1=NC(C)(CO)CO1 (configuration not stated)
3. O=C(N/N=C/c1cccc(O)c1O)c1ccccc1
4. CCCCCN1C(=O)CCC1=O

-87.6
105
9.39
105

Hi there! I need growth for each item below, if you can.
1. O=C(O)c1ccc2cccnc2c1O
2. Cc1ccc2nc(-c3ccc(N(C)C)c(Br)c3)cn2c1
3. CCCCc1ccc(C(N)=O)nc1
4. CCN(Cc1cccc(S(=O)(=O)[O-])c1)c1ccc(C(=C2C=CC(=[N+](CC)Cc3cccc(S(=O)(=O)O)c3)C=C2)c2ccccc2S(=O)(=O)O)cc1
5. Cc1ccc2c(c1)C(=O)/C(=C\Nc1ccc(C(N)=O)cc1)C(O)O2 (configuration not stated)
6. Cc1sc2nc(N3CCCCC3)[nH]c(=O)c2c1C

[2.32, 33, 99.4, 95.1, 93.5, 93.2]

Hi there! I need growth for each item below, if you can.
1. CCNCCCn1c2c(c3ccc(F)cc3c1=O)C(=O)c1cc(OC)cnc1-2
2. NS(=O)(=O)c1ccc(-n2ncc3c(NC4CCCCC4)ncnc32)cc1
3. CCSc1nc(-c2ccc(F)cc2)c(C#N)c(=O)[nH]1
4. COc1cc(/C=C2\CN(C)CC3=C2Nc2nc(SC)[nH]c(=O)c2C3c2cc(OC)c(OC)c(OC)c2)cc(OC)c1OC (configuration not stated)

1. -62.1
2. 93.6
3. 109
4. -46.3

Hi there! I need growth for each item below, if you can.
1. COc1ccc2c(c1)sc1nc(-c3ccc(N(C)C)cc3)cn12
2. O=C(/C=C/c1cccc(O)c1)c1cccc(-n2cc(-c3ccccc3)[nH]c2=O)c1
3. O=C1C=CC(=O)N1c1ccccc1N1C(=O)C=CC1=O
4. CCCCCCCCCCCCCCCCNC(=O)Nc1ccc2ccccc2c1
5. COc1cc(C(=O)c2cc3c(cc2C)OCO3)cc(OC)c1OC

1: 91.7; 2: -67.7; 3: 105; 4: 101; 5: 15.9

====

I'd appreciate it if you could supply growth values for the items below.
Test system: MOLT-4 leukemia
Assay: NCI-60 one-dose screen, 48 h (100 = growth as untreated, 0 = no growth, -100 = all killed)
Conditions: 10 µM unless noted
The panel holds about 83,000 compounds, 20% with a hit somewhere; the sample as a whole holds those more often.
One number for each entry, in %.

Would you please look over these solved cases?
Need growth, item `CCCCCN1C(=O)CCC1=O`
110

Need growth, item `CCOC(=O)c1sc(NC(=O)COc2cccc(/C=C3\Cc4ccc(Cl)cc4C3=O)c2)nc1C`
105

Need growth, item `COc1cc(-c2nc3nc4sc(C)c(C)c4c(=O)n3[nH]2)cc(OC)c1OC`
68.3

Need growth, item O=C1CSC(c2ccccc2O)N1c1nnc(Cn2ccnc2)o1 (stereo not given)
48.6

Next compound, please.
Need growth, item `CC(=O)OCC(=O)[C@@]1(O)CC[C@H]2[C@@H]3CCC4=CC(=O)CC[C@]4(C)[C@@]3(F)[C@@H](O)C[C@@]21C`
90.2
